- Tested on: Ebola virus (Makona)
- EXPERIMENTAL DETAILS: microbe, parasite or virus in culture
- Format: cell-based
- STATED CONDITIONS: Zaire ebolavirus, HeLa, read-out: Antiviral activity EC50
MEASUREMENT LABEL: EC50 (nM)

• CCC(CC)COC(=O)[C@H](C)N[P@](=O)(OC[C@H]1O[C@@](C#N)(c2ccc3c(N)ncnn23)[C@H](O)[C@@H]1O)Oc1ccccc1 = 78

* * *

- EXPERIMENTAL DETAILS: Cytotoxicity, CellTiter-Glo, 96 h (229E protocol)
- STATED CONDITIONS: human, H1 HeLa cells
MEASUREMENT LABEL: CC50 at 96 h

• CCC(CC)COC(=O)[C@H](C)N[P@](=O)(OC[C@H]1O[C@@](C#N)(c2ccc3c(N)ncnn23)[C@H](O)[C@@H]1O)Oc1ccccc1 = > 50 µM
